Assay: Half life in BALB/c mouse plasma at 5 mg/kg, iv by LC-MS/MS analysis
measurement.type: half-life (h)
Answer in h, number only, no unit symbol.

Entry COc1cccc2c1C(=O)c1c(O)c3c(c(O)c1C2=O)C[C@@](O)(C(=O)CO)C[C@@H]3O[C@H]1C[C@H](N)[C@H](O)[C@H](C)O1 — recorded half-life = 29.4

Hey, just so you know, these numbers are from ChEMBL document CHEMBL6114947.
